target: human δ opioid receptors (hDOR) (Homo sapiens, UniProt P41143); construct: expressed in transfected cells; host or cells: HN9.10 neuroblastoma cell line, pCDNA3, neomycin-selected clones; test: Radioligand competition binding, [3H]DPDPE, hDOR membranes
Sequence (P41143 whole entry): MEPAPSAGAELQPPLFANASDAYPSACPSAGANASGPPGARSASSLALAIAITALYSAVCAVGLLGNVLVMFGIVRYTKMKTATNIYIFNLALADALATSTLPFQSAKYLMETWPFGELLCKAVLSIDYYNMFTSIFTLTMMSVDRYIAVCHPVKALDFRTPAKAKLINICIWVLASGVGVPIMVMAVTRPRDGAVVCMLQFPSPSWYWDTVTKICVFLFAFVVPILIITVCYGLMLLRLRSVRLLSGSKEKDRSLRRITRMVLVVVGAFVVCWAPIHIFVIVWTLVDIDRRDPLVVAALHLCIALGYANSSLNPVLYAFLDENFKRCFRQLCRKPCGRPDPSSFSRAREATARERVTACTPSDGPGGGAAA
Peptide text beside a SMILES is read from it.
endpoint name: pKi
Worth noting: pKi values are minus log10 of concentrations stated in mol/L.

Example entries begin here.
C[C@H](NC(=O)[C@H](Cc1ccccc1)NC(=O)CNC(=O)[C@@H](C)NC(=O)[C@@H](N)Cc1ccc(O)cc1)C(=O)N[C@@H](Cc1c[nH]c2ccccc12)C(=O)OCc1cc(C(F)(F)F)cc(C(F)(F)F)c1 [NP31] (HELM PEPTIDE1{Y.[dA].G.F.A.W.[FC(F)(F)c1cc(CO[*:1])cc(C(F)(F)F)c1]}$$$$V2.0; N-terminus assumed) = 8.92
CC(C)C[C@H](NC(=O)[C@@H]1CCCN1C(=O)[C@@H](Cc1ccccc1)NC(=O)[C@H](Cc1ccccc1)NC(=O)CNC(=O)[C@@H](C)NC(=O)[C@@H](N)Cc1ccc(O)cc1)C(=O)N[C@@H](Cc1c[nH]c2ccccc12)C(=O)OCc1cc(C(F)(F)F)cc(C(F)(F)F)c1 = 6.96
CSCC[C@H](NC(=O)[C@H](Cc1ccccc1)NC(=O)CNC(=O)[C@@H](C)NC(=O)[C@@H](N)Cc1ccc(O)cc1)C(=O)N1CCC[C@H]1C(=O)N[C@@H](CC(C)C)C(=O)N[C@@H](Cc1c[nH]c2ccccc12)C(=O)O = 8.96
CC(C)C[C@H](NC(=O)[C@H](Cc1ccccc1)NC(=O)CNC(=O)[C@@H](C)NC(=O)[C@@H](N)Cc1ccc(O)cc1)C(=O)N[C@@H](Cc1c[nH]c2ccccc12)C(=O)OCc1cc(C(F)(F)F)cc(C(F)(F)F)c1 [NP37] (HELM PEPTIDE1{Y.[dA].G.F.L.W.[FC(F)(F)c1cc(CO[*:1])cc(C(F)(F)F)c1]}$$$$V2.0; N-terminus assumed) = 8.54
CSCC[C@H](NC(=O)[C@H](Cc1ccccc1)NC(=O)CNC(=O)[C@@H](C)NC(=O)[C@@H](N)Cc1c(C)cc(O)cc1C)C(=O)N1CCC[C@H]1C(=O)N[C@@H](CC(C)C)C(=O)N[C@@H](Cc1c[nH]c2ccccc12)C(=O)OCc1cc(C(F)(F)F)cc(C(F)(F)F)c1 = 9.66

For CSCC[C@H](NC(=O)[C@H](Cc1ccccc1)NC(=O)CNC(=O)[C@@H](C)NC(=O)[C@@H](N)Cc1c(C)cc(O)cc1C)C(=O)N1CCC[C@H]1C(=O)N[C@@H](CC(C)C)C(=O)N[C@@H](Cc1c[nH]c2ccccc12)C(=O)NCc1cc(C(F)(F)F)cc(C(F)(F)F)c1 , what is its reported pKi?
9.92

For CC(C)C[C@H](NC(=O)[C@@H]1CCCN1C(=O)[C@H](Cc1ccccc1)NC(=O)[C@H](Cc1ccccc1)NC(=O)CNC(=O)[C@@H](C)NC(=O)[C@@H](N)Cc1ccc(O)cc1)C(=O)N[C@@H](Cc1c[nH]c2ccccc12)C(=O)OCc1cc(C(F)(F)F)cc(C(F)(F)F)c1 , what is its reported pKi?
7.84

---

biological target: human δ opioid receptors (hDOR) (Homo sapiens, UniProt P41143); construct: expressed in transfected cells; host or cells: HN9.10 neuroblastoma cell line, pCDNA3, neomycin-selected clones; assay: [35S]GTP-γ-S binding assay, hDOR; assay type: biochemical; conditions: read-out: Emax, hDOR, [35S]GTP-γ-S binding
endpoint name: Emax
Please format your answer as a value with the unit trailing.

CCCC[C@@H](C(=O)N1CCC[C@H]1C(=O)N[C@@H](CC(C)C)C(=O)N[C@@H](Cc1c[nH]c2ccccc12)C(=O)OCc1cc(C(F)(F)F)cc(C(F)(F)F)c1)N(C)C(=O)[C@H](Cc1ccccc1)NC(=O)CNC(=O)[C@@H](C)NC(=O)[C@@H](N)Cc1ccc(O)cc1 [TY019] = 316%
CSCC[C@H](NC(=O)[C@H](Cc1ccccc1)NC(=O)CNC(=O)[C@@H](C)NC(=O)[C@@H](N)Cc1ccc(O)cc1)C(=O)N1CCC[C@H]1C(=O)N[C@@H](CC(C)C)C(=O)N[C@@H](Cc1c[nH]c2ccccc12)C(=O)OCc1cc(C(F)(F)F)cc(C(F)(F)F)c1 [TY005] = 51%
CC(C)C[C@H](NC(=O)[C@@H]1CCCN1C(=O)[C@@H](Cc1ccccc1)NC(=O)[C@H](Cc1ccccc1)NC(=O)CNC(=O)[C@@H](C)NC(=O)[C@@H](N)Cc1ccc(O)cc1)C(=O)N[C@@H](Cc1c[nH]c2ccccc12)C(=O)OCc1cc(C(F)(F)F)cc(C(F)(F)F)c1 [TY007] = 26%

Read the next record carefully.
For CC(C)C[C@H](NC(=O)[C@@H]1CCCN1C(=O)[C@H](Cc1ccccc1)NC(=O)[C@H](Cc1ccccc1)NC(=O)CNC(=O)[C@@H](C)NC(=O)[C@@H](N)Cc1ccc(O)cc1)C(=O)N[C@@H](Cc1c[nH]c2ccccc12)C(=O)OCc1cc(C(F)(F)F)cc(C(F)(F)F)c1 [TY003] , what is its reported Emax?
39%
